molecular target: systemic lupus erythematosus autoantigen SSA; test: AtheNA Multi-Lyte ANA, Ab at 50 ug/ml;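 further: monoclonal antibodies probed against a nuclear autoantigen panel (SSA, SSB, Sm, RNP, Scl-70, Jo-1, dsDNA, CentB, histones), with anti-HIV 4E10 and palivizumab as control antibodies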
READOUT KIND: AtheNA signal
Reply: number alone, nothing else.

Study these solved cases before continuing.
1) Ab7957/293i (antibody, IgG1, V domains shown, Recombinant human antibody with IgG1 heavy chain backbone and kappa light chain constant; they begin at LVESGGG and MTQSP; also called Ab7957i; mAb 7957) VH: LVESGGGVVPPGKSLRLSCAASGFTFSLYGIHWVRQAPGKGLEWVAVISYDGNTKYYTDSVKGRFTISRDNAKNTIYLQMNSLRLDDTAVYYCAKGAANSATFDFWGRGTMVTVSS VL: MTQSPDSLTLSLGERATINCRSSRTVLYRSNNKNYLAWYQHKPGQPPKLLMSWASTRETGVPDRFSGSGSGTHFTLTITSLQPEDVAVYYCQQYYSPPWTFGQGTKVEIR	11
2) Ab7960/293i (antibody, IgG1, V domains shown, Recombinant human antibody with IgG1 heavy chain backbone and kappa light chain constant; they begin at LVESGGG and MTQSP; also called mAb 7960; mAb7960) VH: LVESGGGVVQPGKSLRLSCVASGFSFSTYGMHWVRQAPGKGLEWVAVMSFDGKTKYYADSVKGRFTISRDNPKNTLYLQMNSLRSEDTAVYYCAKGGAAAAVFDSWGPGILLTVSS VL: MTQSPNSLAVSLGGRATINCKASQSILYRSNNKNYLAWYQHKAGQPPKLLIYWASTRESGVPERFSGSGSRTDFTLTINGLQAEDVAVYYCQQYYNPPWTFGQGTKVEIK	6

### Prompt What value of measured AtheNA signal is listed for Ab7955 (antibody, V domains shown, Recombinant human antibody with IgG1 heavy chain backbone and kappa light chain constant; also called mAb 7955; clone 19) VH: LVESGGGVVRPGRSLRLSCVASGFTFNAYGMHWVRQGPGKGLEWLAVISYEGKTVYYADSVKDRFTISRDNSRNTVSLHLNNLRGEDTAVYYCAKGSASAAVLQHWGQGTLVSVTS VL: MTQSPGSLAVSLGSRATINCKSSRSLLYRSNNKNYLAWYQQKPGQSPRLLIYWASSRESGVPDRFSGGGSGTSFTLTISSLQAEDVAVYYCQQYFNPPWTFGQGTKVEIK ?
### Response 92

### Prompt Same read-out for Ab7961/293i (antibody, IgG1, V domains shown, Recombinant human antibody with IgG1 heavy chain backbone and kappa light chain constant; they begin at LVESGGG and MTQSP; also called mAb 7961; clone 24) VH: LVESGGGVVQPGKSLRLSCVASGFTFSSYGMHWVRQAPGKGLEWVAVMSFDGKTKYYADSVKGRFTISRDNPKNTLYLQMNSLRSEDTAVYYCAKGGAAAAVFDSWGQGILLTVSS VL: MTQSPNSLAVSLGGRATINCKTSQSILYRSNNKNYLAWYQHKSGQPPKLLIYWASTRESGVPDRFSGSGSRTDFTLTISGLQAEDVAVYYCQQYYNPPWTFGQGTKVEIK ?
### Response 40

### Prompt Same read-out for Ab7962/293i (antibody, V domains shown, Recombinant human antibody with IgG1 heavy chain backbone and kappa light chain constant (IgM in the donor B cell); they begin at LVESGGG and MTQSL; also called clone 27; pH007962/pK005996) VH: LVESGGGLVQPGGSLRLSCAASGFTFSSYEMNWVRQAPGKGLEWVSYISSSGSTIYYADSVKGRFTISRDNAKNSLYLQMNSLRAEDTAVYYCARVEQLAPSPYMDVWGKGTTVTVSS VL: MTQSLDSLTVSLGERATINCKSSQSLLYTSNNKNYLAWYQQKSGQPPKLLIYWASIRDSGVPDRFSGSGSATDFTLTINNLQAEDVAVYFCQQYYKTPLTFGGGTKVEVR ?
### Response 2

### Prompt Same read-out for Ab7968 (antibody, IgG1, V domains shown, Recombinant human antibody with IgG1 heavy chain backbone and kappa light chain constant; they begin at LVESGGG and MTQSP; also called mAb 7968; mAb7968) VH: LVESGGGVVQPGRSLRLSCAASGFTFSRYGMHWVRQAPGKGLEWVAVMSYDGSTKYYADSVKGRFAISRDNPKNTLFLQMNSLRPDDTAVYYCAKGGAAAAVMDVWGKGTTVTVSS VL: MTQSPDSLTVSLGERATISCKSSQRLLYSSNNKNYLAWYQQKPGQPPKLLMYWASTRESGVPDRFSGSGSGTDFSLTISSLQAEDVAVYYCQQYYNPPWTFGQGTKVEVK ?
### Response 7
